ASSAY OVERVIEW: Kinetic solubility at pH 7.4
REPORTED CONDITIONS: 1×PBS buffer (pH 7.4), 22.8 °C, pH 7.4, aqueous buffer, kinetic from dmso stock
# solubility kinetic at 24 h per record follows

COMPOUND	solubility kinetic at 24 h
Cc1c(-c2[nH]c3sc([C@@H]4C[C@@H]5C[C@H]4CN5CC(N)=O)cc3c2C(C)C)cn2ncnc2c1C	22.8 µg/mL
COc1cc(-c2[nH]c3cc(C4CCNCC4)sc3c2C(C)C)cn2ncnc12 [Example B-1, reference compound]	22 µg/mL
Cc1c(-c2[nH]c3sc([C@@H]4C[C@@H]5C[C@H]4CN5CC(N)=O)c(C)c3c2C(C)C)cn2ncnc2c1C	21.5 µg/mL
Cc1c(-c2[nH]c3ccc(C4CCN(CC(N)=O)CC4)cc3c2C(C)C)cn2ncnc2c1C [Example A-1, reference compound]	< 1 µg/mL
Cc1c(-c2[nH]c3sc(C4CCN(C(=O)[C@H]5COCCN5)CC4)c(C)c3c2C(C)C)cn2ncnc2c1C	26.5 µg/mL
Cc1c(-c2[nH]c3sc(C4CCN(CC(N)=O)CC4)c(C)c3c2C(C)C)cn2ncnc2c1C	16.8 µg/mL
Cc1c(-c2[nH]c3sc([C@@H]4C[C@@H]5C[C@H]4CN5Cc4cn(C)nn4)c(C)c3c2C(C)C)cn2ncnc2c1C	21.1 µg/mL
Cc1c(-c2[nH]c3sc(C4CCN(CC(N)=O)CC4)cc3c2C(C)C)cn2ncnc2c1C	1 µg/mL
Cc1c(-c2[nH]c3sc([C@@H]4C[C@@H]5C[C@H]4CN5C(C)C(N)=O)c(C)c3c2C(C)C)cn2ncnc2c1C (single isomer, unassigned)	23.5 µg/mL
Cc1c(-c2[nH]c3sc([C@@H]4C[C@@H]5C[C@H]4CN5CCO)c(C)c3c2C(C)C)cn2ncnc2c1C	27.7 µg/mL
Cc1c(-c2[nH]c3sc(C4CCN(C(=O)[C@H]5CCCN5)CC4)c(C)c3c2C(C)C)cn2ncnc2c1C	24.9 µg/mL

* * *

SYSTEM UNDER TEST: TLR7 (Homo sapiens (Human))
Sequence (Q9NYK1 27-1049): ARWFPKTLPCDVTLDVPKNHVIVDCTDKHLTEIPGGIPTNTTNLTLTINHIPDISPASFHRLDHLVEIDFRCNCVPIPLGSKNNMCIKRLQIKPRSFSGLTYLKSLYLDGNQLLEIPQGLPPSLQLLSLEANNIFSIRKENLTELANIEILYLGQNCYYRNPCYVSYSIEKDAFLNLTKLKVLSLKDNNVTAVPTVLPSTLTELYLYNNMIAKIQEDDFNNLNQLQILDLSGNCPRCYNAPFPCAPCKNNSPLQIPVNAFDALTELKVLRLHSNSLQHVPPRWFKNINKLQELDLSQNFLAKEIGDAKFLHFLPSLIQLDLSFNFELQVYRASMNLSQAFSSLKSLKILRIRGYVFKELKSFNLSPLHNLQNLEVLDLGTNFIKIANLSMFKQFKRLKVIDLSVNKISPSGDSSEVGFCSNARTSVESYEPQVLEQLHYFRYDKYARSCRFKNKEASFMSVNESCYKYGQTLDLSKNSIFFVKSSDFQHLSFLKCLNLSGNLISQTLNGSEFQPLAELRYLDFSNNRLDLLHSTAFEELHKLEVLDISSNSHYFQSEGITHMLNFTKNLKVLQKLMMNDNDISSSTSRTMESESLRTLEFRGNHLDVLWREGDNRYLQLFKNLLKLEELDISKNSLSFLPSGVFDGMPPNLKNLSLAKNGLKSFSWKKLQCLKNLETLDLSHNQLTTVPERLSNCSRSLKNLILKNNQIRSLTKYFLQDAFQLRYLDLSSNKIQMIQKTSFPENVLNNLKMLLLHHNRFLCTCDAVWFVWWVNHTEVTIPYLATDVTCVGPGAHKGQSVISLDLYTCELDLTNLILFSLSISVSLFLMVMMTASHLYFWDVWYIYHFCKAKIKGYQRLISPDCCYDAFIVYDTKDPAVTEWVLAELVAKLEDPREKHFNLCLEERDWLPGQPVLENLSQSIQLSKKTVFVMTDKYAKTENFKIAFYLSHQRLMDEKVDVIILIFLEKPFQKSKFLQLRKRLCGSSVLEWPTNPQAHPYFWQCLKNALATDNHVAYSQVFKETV
ASSAY OVERVIEW: TLR7 human peripheral blood mononuclear cell (PBMC) cell-based assay (GS-986 as agonist; IL-6 and IFNα readout)
REPORTED CONDITIONS: human PBMCs, TLR7 agonist GS-986 at 400 nM, 6 hours, antagonist potency; read-out: TLR-7 EC50

COMPOUND	SYSTEM UNDER TEST	EC50, nM
COCCNC(=O)CN1C[C@@H]2C[C@H]1C[C@H]2c1sc2[nH]c(-c3cn4ncnc4c(C)c3C)c(C(C)C)c2c1C [Example 272]	TLR7 (Homo sapiens (Human))	2.13
Cc1c(-c2[nH]c3sc([C@@H]4C[C@@H]5C[C@H]4CN5CC(=O)N(C)CCO)c(C)c3c2C(C)C)cn2ncnc2c1C [Example 266]	TLR7 (Homo sapiens (Human))	1.27
Cc1c(-c2[nH]c3sc(C4CC(n5cc(C6COCCN6)nn5)C4)c(C)c3c2C(C)C)cn2ncnc2c1C (single isomer, unassigned) [Example 245]	TLR7 (Homo sapiens (Human))	0.17

* * *

SYSTEM UNDER TEST: TLR8 (Homo sapiens (Human))
ASSAY OVERVIEW: TLR8 human peripheral blood mononuclear cell (PBMC) cell-based assay (Compound A as agonist; TNFα and IL12p40 readout)
REPORTED CONDITIONS: human PBMCs, TLR8 agonist Compound A at 800 nM, 6 hours, antagonist potency; read-out: TLR-8 EC50
# EC50 per record follows

COMPOUND	EC50 [nM]
Cc1c(-c2ccc(N3CCNCC3)nc2)sc2[nH]c(-c3cc(C)c4ncnn4c3)c(C(C)C)c12	12
Cc1c(-c2[nH]c3sc(C45CCNCC4C5)c(C)c3c2C(C)C)cn2ncnc2c1C (stereo not shown)	2.89
Cc1c(-c2[nH]c3sc([C@@H]4C[C@@H]5C[C@H]4CN5CC(=O)N[C@H]4C[C@@H](O)C4)c(C)c3c2C(C)C)cn2ncnc2c1C	0.28
Cc1c(-c2[nH]c3sc(C4CCNCC4)cc3c2C(C)C)cn2ncnc2c1C	3.01
CO[C@@H]1CN[C@@H](C(=O)N2CCC(c3sc4[nH]c(-c5cc(C)c6ncnn6c5)c(C(C)C)c4c3C)CC2)C1	15.6
Cc1c(-c2[nH]c3sc(C4CCC(N5CC[C@H](F)C5)CC4)c(C)c3c2C(C)C)cn2ncnc2c1C (stereo partly shown)	6.4
Cc1c(C2CCN(C(=O)C34CC(CN3)C4)CC2)sc2[nH]c(-c3cc(C)c4ncnn4c3)c(C(C)C)c12	3.14
Cc1c([C@H]2C[C@H]3CC[C@@H]2CN3CC(N)=O)sc2[nH]c(-c3cc(C)c4ncnn4c3)c(C(C)C)c12 (single isomer, unassigned)	13.8
Cc1c(C2CC3CCC(C2)N3CC(N)=O)sc2[nH]c(-c3cc(C)c4ncnn4c3)c(C(C)C)c12 (stereo not shown)	7.17
Cc1c(C23CCN(CC(N)=O)CC2C3(F)F)sc2[nH]c(-c3cc(C)c4ncnn4c3)c(C(C)C)c12 (stereo not shown)	230
Cc1cc(-c2[nH]c3sc(C4CCN(CC(N)=O)CC4)c(C)c3c2C(C)C)cn(C)c1=O	10.6
Cc1c(C23CNCC2C3(F)F)sc2[nH]c(-c3cc(C)c4ncnn4c3)c(C(C)C)c12 (stereo not shown)	13.8
Cc1c(C2CCC3(CNC3)C2)sc2[nH]c(-c3cc(C)c4ncnn4c3)c(C(C)C)c12 (stereo not shown)	9.09
Cc1c(C2CCN(C(=O)[C@@H]3CNCCO3)CC2)sc2[nH]c(-c3cc(C)c4ncnn4c3)c(C(C)C)c12	14.1
Cc1cc(-c2[nH]c3sc(S(=O)(=O)N4CCNCC4)cc3c2C(C)C)cn2ncnc12	84.6
Cc1c(-c2[nH]c3sc(C4CCN(C(=O)[C@@H]5CC(F)(F)CCN5)CC4)c(C)c3c2C(C)C)cn2ncnc2c1C	19.5
Cc1c(-c2[nH]c3sc(C4CCN(C5CCCNC5=O)CC4)c(C)c3c2C(C)C)cn2ncnc2c1C (stereo not shown)	9.39
Cc1c(-c2[nH]c3sc([C@@H]4C[C@@H]5C[C@H]4CN5CC(=O)N4CC(O)C4)c(C)c3c2C(C)C)cn2ncnc2c1C	0.83
Cc1c(-c2[nH]c3sc(C4CC5(CCN(CC(N)=O)C5)C4)c(C)c3c2C(C)C)cn2ncnc2c1C (single isomer, unassigned) [Example 86]	0.98
Cc1c(C2CCN(CC(N)=O)CC2)sc2[nH]c(-c3cc(C)c4nccn4c3)c(C(C)C)c12	69.3
Cc1c(-c2[nH]c3sc(C4CC(n5cc(C6COCCN6)nn5)C4)c(C)c3c2C(C)C)cn2ncnc2c1C (single isomer, unassigned) [Example 245]	3.33
Cc1c(-c2[nH]c3sc([C@@H]4C[C@@H]5CC[C@H]4CN5CC(N)=O)c(C)c3c2C(C)C)cn2ncnc2c1C (single isomer, unassigned)	4.45
Cc1c(C23CCNCC2C3(F)F)sc2[nH]c(-c3cc(C)c4ncnn4c3)c(C(C)C)c12 (stereo not shown)	30.4
Cc1c(C2CCC3(CC2)CN(CC(N)=O)C3)sc2[nH]c(-c3cc(C)c4ncnn4c3)c(C(C)C)c12	2.95
Cc1c(-c2[nH]c3sc(-c4cnc(C5CCN(CC(N)=O)CC5)nc4)c(C)c3c2C(C)C)cn2ncnc2c1C	1
Cc1c(-c2[nH]c3sc(C4CC5(C4)CN(C(=O)[C@H]4COCCN4)C5)c(C)c3c2C(C)C)cn2ncnc2c1C	1.12
Cc1c(C23CCN(CC(N)=O)CC2C3)sc2[nH]c(-c3cc(C)c4ncnn4c3)c(C(C)C)c12 (stereo not shown)	14.8
Cc1c(C2CCN(C(=O)[C@H]3CCCN3)CC2)sc2[nH]c(-c3cc(C)c4ncnn4c3)c(C(C)C)c12	13.4

* * *

SYSTEM UNDER TEST: TLR8 (Homo sapiens (Human), UniProt Q9NR97)
Sequence (Q9NR97 27-1041): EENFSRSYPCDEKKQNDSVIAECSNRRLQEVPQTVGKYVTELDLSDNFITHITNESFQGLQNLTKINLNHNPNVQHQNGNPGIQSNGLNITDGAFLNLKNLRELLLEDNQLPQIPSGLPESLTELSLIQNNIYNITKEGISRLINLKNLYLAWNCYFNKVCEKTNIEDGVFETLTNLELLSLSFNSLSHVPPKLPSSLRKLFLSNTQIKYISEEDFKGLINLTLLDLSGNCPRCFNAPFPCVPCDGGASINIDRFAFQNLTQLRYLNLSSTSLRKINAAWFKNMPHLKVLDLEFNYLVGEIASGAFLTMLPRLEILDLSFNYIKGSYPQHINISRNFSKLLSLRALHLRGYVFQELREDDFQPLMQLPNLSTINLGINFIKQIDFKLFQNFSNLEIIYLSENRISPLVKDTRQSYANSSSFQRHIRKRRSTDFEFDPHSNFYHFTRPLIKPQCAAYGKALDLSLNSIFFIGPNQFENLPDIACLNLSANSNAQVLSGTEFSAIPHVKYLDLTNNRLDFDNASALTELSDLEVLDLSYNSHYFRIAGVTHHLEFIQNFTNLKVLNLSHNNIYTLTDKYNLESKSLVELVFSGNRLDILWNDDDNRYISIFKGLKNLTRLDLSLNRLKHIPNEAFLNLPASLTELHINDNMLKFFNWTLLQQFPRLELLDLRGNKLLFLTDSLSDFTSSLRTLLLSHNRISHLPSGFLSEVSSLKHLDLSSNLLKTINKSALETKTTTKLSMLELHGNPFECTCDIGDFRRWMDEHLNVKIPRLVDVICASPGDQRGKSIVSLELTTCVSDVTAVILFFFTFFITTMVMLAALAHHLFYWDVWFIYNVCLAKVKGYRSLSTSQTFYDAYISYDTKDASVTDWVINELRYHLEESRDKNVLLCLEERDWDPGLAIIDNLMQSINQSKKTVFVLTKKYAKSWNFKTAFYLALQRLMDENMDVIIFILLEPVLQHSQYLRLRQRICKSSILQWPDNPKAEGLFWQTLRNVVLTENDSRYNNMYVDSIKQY
ASSAY OVERVIEW: TLR8 human peripheral blood mononuclear cell (PBMC) cell-based assay (Compound A as agonist; TNFα and IL12p40 readout)
REPORTED CONDITIONS: human PBMCs, TLR8 agonist Compound A at 800 nM, 6 hours, antagonist potency; read-out: TLR-8 EC50
pEC50: −log10 of the molar value.
If the reported pEC50 equals or exceeds 8, assign condition met. If not, assign condition not met.

COMPOUND	ANSWER LABEL
Cc1c(-c2[nH]c3sc(C4CCN(C(=O)C56CCC(CN5)OC6)CC4)c(C)c3c2C(C)C)cn2ncnc2c1C (stereo not drawn)	condition met
Cc1c(-c2[nH]c3sc(C4CCC45CNC5)c(C)c3c2C(C)C)cn2ncnc2c1C (stereo not drawn)	condition not met
Cc1c(-c2[nH]c3sc([C@H]4C[C@@H](c5nnc([C@@H]6COCCN6)o5)C4)c(C)c3c2C(C)C)cn2ncnc2c1C (single isomer, unassigned)	condition not met
Cc1c(-c2[nH]c3sc(C4CC(c5nnc([C@H]6COCCN6)o5)C4)c(C)c3c2C(C)C)cn2ncnc2c1C (single isomer, unassigned) [Example 240]	condition not met
Cc1c(-c2[nH]c3sc(C4CC(C(=O)N5CCNCC5)C4)c(C)c3c2C(C)C)cn2ncnc2c1C (single isomer, unassigned) [Example 239]	condition met
Cc1c(C2CCN(CC(N)=O)CC2)sc2[nH]c(C3=NC(C)c4ncccc43)c(C(C)C)c12 (stereo not drawn)	condition not met
Cc1c(C23CC2CCN(CC(N)=O)C3)sc2[nH]c(-c3cc(C)c4ncnn4c3)c(C(C)C)c12 (stereo not drawn)	condition not met
Cc1c(-c2[nH]c3sc(C45CCN(CC(N)=O)CC4C5)c(C)c3c2C(C)C)cn2ncnc2c1C (single isomer, unassigned) [Example 103]	condition not met
Cc1c(-c2[nH]c3sc([C@@H]4C[C@@H]5C[C@H]4CN5CC(=O)NC4COC4)c(C)c3c2C(C)C)cn2ncnc2c1C	condition met
Cc1c(C2C3CC2CN(CC(N)=O)C3)sc2[nH]c(-c3cc(C)c4ncnn4c3)c(C(C)C)c12 (stereo not drawn)	condition not met
Cc1c(-c2[nH]c3sc([C@@H]4C[C@@H]5C[C@H]4CN5CC(N)=O)c(C)c3c2C(C)C)cn2ncnc2c1C	condition met
Cc1nc2c(C)cc(-c3[nH]c4sc(C5CCN(C(=O)[C@H]6COCCN6)CC5)c(C)c4c3C(C)C)cn2n1	condition not met
Cc1c(-c2[nH]c3sc([C@H]4C[C@H]5C[C@@H]4CN5)c(C)c3c2C(C)C)cn2ncnc2c1C	condition met
Cc1c(-c2[nH]c3sc(C4CC5(CCN(CCS(C)(=O)=O)C5)C4)c(C)c3c2C(C)C)cn2ncnc2c1C (single isomer, unassigned) [Example 313]	condition met
Cc1c(-c2[nH]c3sc(C4CCN(C(=O)C5CN6CC7CC6(CO5)C7)CC4)c(C)c3c2C(C)C)cn2ncnc2c1C (stereo not drawn)	condition met
CCc1c(C2CCN(C(=O)[C@@H]3COCCN3)CC2)sc2[nH]c(-c3cc(C)c4ncnn4c3)c(C(C)C)c12	condition not met
Cc1c(-c2[nH]c3sc(C4CCNCC4)c(C)c3c2C(C)C)cn2ncnc2c1C	condition met
Cc1c(C2CC3(C2)CN(CC(N)=O)C3)sc2[nH]c(-c3cc(C)c4ncnn4c3)c(C(C)C)c12	condition met
Cc1c(-c2[nH]c3sc([C@@H]4C[C@@H]5C[C@H]4CN5CCS(=O)(=O)CCO)c(C)c3c2C(C)C)cn2ncnc2c1C	condition met
